measuredOn: PDE10A (Homo sapiens (Human))
Sequence (Q9Y233 whole entry): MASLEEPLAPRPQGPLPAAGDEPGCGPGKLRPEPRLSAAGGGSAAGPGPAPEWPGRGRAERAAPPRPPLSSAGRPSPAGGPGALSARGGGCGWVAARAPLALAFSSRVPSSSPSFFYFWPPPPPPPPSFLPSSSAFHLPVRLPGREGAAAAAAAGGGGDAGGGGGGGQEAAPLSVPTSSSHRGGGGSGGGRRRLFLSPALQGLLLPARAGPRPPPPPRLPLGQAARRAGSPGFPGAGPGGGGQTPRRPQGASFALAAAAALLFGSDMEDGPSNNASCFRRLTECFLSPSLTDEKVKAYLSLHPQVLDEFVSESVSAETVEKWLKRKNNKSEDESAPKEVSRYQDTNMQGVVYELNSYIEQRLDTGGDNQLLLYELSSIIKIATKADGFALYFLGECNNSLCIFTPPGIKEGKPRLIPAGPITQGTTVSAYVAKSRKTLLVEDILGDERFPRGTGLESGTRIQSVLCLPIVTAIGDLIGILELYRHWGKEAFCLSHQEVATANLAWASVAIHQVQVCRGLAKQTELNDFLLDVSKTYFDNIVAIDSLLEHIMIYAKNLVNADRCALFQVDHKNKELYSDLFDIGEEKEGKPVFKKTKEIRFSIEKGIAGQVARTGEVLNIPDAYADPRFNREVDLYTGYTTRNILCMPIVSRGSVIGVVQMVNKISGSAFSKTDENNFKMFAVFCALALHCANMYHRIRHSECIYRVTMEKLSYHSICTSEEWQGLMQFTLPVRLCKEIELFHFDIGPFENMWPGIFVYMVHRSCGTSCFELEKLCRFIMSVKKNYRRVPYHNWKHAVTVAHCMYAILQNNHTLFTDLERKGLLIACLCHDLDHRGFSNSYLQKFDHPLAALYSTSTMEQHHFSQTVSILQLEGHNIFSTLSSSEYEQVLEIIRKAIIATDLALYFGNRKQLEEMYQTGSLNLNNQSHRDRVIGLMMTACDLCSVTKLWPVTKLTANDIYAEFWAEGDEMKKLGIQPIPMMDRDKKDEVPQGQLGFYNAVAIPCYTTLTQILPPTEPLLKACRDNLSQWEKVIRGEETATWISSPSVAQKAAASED
protocol: Measurement of PDE10A inhibitory activity-2 (PDE10A fraction prepared from MOLT-4 cells)
Type: biochemical
conditions: PDE10A fraction from MOLT-4 cells (peak around 250 mM NaCl)
Counter-ions that a name gives are not always drawn.
resultType: IC50 (nM)

COCc1ccc(C(C)=O)c2sc(C(=O)Nc3cc(Cl)c4ccccc4n3)c(C)c12 ... 18
Cc1c(C(=O)Nc2cc(C(C)(C)O)c3ccccc3n2)sc2c(C(=O)C(C)C)cccc12 ... 0.47
COCc1ccc(C(C)=O)c2sc(C(=O)Nc3cc(N4CCN(C)CC4)c4ccccc4n3)c(C)c12 ... 1.6
COCc1ccc(C(C)=O)c2sc(C(=O)Nc3ccc4c(C(=O)N5CC(OC)C5)cccc4n3)c(C)c12 ... 0.3

[a] [2H]C([2H])([2H])OCc1cccc2nc(NC(=O)c3sc4c(C(C)=O)ccc(COC)c4c3C)ccc12
[b] COCc1ccc(C(C)=O)c2sc(C(=O)Nc3cc(N4CCOCC4)c4ccccc4n3)c(C)c12
Identify the entry with the larger IC50. Options: a and b Your answer should be the label of the entry you select.
b

[1] COCc1ccc(C(C)=O)c2sc(C(=O)Nc3ccc4c(CN5CC[C@@H](O)C5)cccc4n3)c(C)c12 [Example 64, dihydrochloride]
[2] COCc1ccc(C(C)=O)c2sc(C(=O)Nc3ccc4c(C(=O)N5CCOCC5)cccc4n3)c(C)c12
Which is greater in IC50, the first item 1 or the second item 2 ? Could you answer with the label of the item you picked?
1

[a] COCc1ccc(C(C)=O)c2sc(C(=O)Nc3ccc4c(COCCO)cccc4n3)c(C)c12 [Example 72, hydrochloride]
[b] [2H]C([2H])([2H])OC1CN(C(=O)c2cccc3nc(NC(=O)c4sc5c(C(C)=O)ccc(C([2H])([2H])OC)c5c4C)ccc23)C1
[c] CC(=O)c1ccc(C(C)=O)c2c(C)c(C(=O)Nc3cc(CN4CC(O)C4)c4ccccc4n3)sc12
[d] COCc1ccc(C(C)=O)c2sc(C(=O)Nc3cc(CN4CCNCC4)c4ccccc4n3)c(C)c12
Order the records so the highest IC50 appears first and the lowest last. Provide your answer as the labels ordered per the instruction.
d, c, a, b

[1] COCc1ccc(C(C)=O)c2sc(C(=O)Nc3ccc4c(COC(=O)CN)cccc4n3)c(C)c12
[2] CCC(=O)c1cccc2c(C)c(C(=O)Nc3cc(C(C)(C)O)c4ccccc4n3)sc12
[3] COCc1ccc(C(C)=O)c2sc(C(=O)Nc3ccc4c(COC(=O)[C@@H](N)C(C)C)cccc4n3)c(C)c12
[4] COCc1ccc(C(C)=O)c2sc(C(=O)Nc3ccc4c(COC(F)F)cccc4n3)c(C)c12 [Example 73, hydrochloride]
[5] COCc1ccc(C(C)=O)c2sc(C(=O)Nc3ccc4c(C(=O)N5CCC5)cccc4n3)c(C)c12
// smallest IC50 at index 0, largest at the end Rank them, then answer with their labels in that order.
5, 1, 4, 2, 3

Cited source for all entries: patent US9464076B2
